Tested on: PC-3
Assay: Neutral comet assay
Assay type: cell-based, human
Details: human, 24 h
Exercise: for every item that follows, state its recorded median tail DNA % (double-strand breaks).
Number first, unit second: that is the form wanted.

As a guide, the following entries are already answered.
smiles-notation: Cc1nn(-c2ccc(S(=O)(=O)N3CCCCC3)cc2)c2nn3nnnc3nc12
tested-system: PC-3
median tail DNA % (double-strand breaks): 5%
//
smiles-notation: Cc1nn(-c2ccc(S(=O)(=O)N3CCN(C)CC3)cc2)c2nn3nnnc3nc12
tested-system: PC-3
median tail DNA % (double-strand breaks): 2.82%
//
smiles-notation: Cc1nn(-c2ccc(S(=O)(=O)NCCN3CCOCC3)cc2)c2nn3nnnc3nc12
tested-system: PC-3
median tail DNA % (double-strand breaks): 4.09%

Query: Entry Cc1nn(-c2ccc(S(=O)(=O)N3CCOCC3)cc2)c2nn3nnnc3nc12 needs its median tail DNA % (double-strand breaks) filled in; supply it.
Result: 4.6%

====

Tested on: BxPC-3
Assay: Alkaline comet assay
Assay type: cell-based, human
Conditions: BxPC-3, alkaline, IC50 concentration, 24 h
readout-kind: median tail DNA % (%)
One number for each entry, in %.

Please supply median tail DNA % for each of the following items, keeping them in order.
1. Cc1nn(-c2ccc(S(=O)(=O)N3CCCCC3)cc2)c2nn3nnnc3nc12
2. Cc1nn(-c2ccc(S(=O)(=O)NCCN3CCOCC3)cc2)c2nn3nnnc3nc12

Result:
[4.74, 2.5]

Please supply median tail DNA % for each of the following items, keeping them in order.
1. Cc1nn(-c2ccc(S(=O)(=O)N3CCN(C)CC3)cc2)c2nn3nnnc3nc12
2. Cc1nn(-c2ccc(S(=O)(=O)N3CCOCC3)cc2)c2nn3nnnc3nc12

Result:
[3.28, 8.28]

====

Tested on: PC-3
Assay: Alkaline comet assay
Type: cell-based, human
Details: PC-3, alkaline, IC50 concentration, 24 h
readout-kind: mean tail DNA % (%)
One number for each entry, in %.

As a guide, the following entries are already answered.
compound: Cc1nn(-c2ccc(S(=O)(=O)N3CCOCC3)cc2)c2nn3nnnc3nc12 [MM136]
units: %
mean tail DNA %: 12.08

compound: Cc1nn(-c2ccc(S(=O)(=O)NCCN3CCOCC3)cc2)c2nn3nnnc3nc12 [MM134]
units: %
mean tail DNA %: 7.37

compound: Cc1nn(-c2ccc(S(=O)(=O)N3CCCCC3)cc2)c2nn3nnnc3nc12 [MM139]
units: %
mean tail DNA %: 14.22

Now look at this entry.
Query: Entry Cc1nn(-c2ccc(S(=O)(=O)N3CCN(C)CC3)cc2)c2nn3nnnc3nc12 [MM137] needs its mean tail DNA % filled in; supply it.
Result: 11.05

====

System: BxPC-3
Test: Alkaline comet assay
Assay type: cell-based, human
Conditions: BxPC-3, alkaline, IC50 concentration, 24 h
Exercise: for every item that follows, state its recorded mean tail DNA %.
Numbers only, in %.

As a guide, the following entries are already answered.
smiles-notation: Cc1nn(-c2ccc(S(=O)(=O)N3CCCCC3)cc2)c2nn3nnnc3nc12
units: %
mean tail DNA %: 10.85
//
smiles-notation: Cc1nn(-c2ccc(S(=O)(=O)NCCN3CCOCC3)cc2)c2nn3nnnc3nc12
units: %
mean tail DNA %: 10.9

Please supply mean tail DNA % for each of the following items, keeping them in order.
1. Cc1nn(-c2ccc(S(=O)(=O)N3CCOCC3)cc2)c2nn3nnnc3nc12
2. Cc1nn(-c2ccc(S(=O)(=O)N3CCN(C)CC3)cc2)c2nn3nnnc3nc12

Result:
1. 14.36
2. 12.07
